System: SNB-75 CNS
test: NCI tumour cell line growth inhibition, 48 h
quantity_name: TGI

Examples from the recorded data:
# compound, system_tested, result
data = [
    ("OCCN1CCN(CCO)Cc2ccccc2OCCOc2ccccc2C1", "SNB-75 CNS", "> 100 µM"),
    ("CCOC(=O)C(NNS(=O)(=O)c1ccc(C)cc1)S(=O)(=O)C(F)(F)C(F)(F)C(F)(F)C(F)(F)F (stereo not given)", "SNB-75 CNS", "> 100 µM"),
    ("CCOC(=O)c1ccc2c(c1)nc1n2C(c2c(F)cccc2F)SC1 (stereo not given)", "SNB-75 CNS", "> 100 µM"),
    ("CC(=O)c1ccc(-c2oc(-c3ccccc3)cc2-c2ccc3c(c2)OCO3)s1", "SNB-75 CNS", "> 100 µM"),
    ("CCOC(=O)C1C(=O)CC(C)(O)C(C(=O)OCC)C1c1ccc(N(C)C)cc1 (stereo not given)", "SNB-75 CNS", "> 100 µM"),
    ("O=c1c(O)c(-c2ccc(O)c(O)c2)oc2cc(O)ccc12", "SNB-75 CNS", "18.2 µM"),
    ("O=C1C2CC3C(CC2C(=O)[N]1[Sn]([c]1ccccc1)([c]1ccccc1)[c]1ccccc1)C1(Cl)C(Cl)=C(Cl)C3(Cl)C1(Cl)Cl (stereo not given)", "SNB-75 CNS", "0.19 µM"),
    ("CSc1ccc(-c2cn3ccsc3n2)c(O)c1", "SNB-75 CNS", "> 94.7 µM"),
]

Your task in this section: give TGI for each listed record.
1. N=c1nc(N)c2cc3c(N)nc(=N)c3cc12
2. O=C(Sc1c(-c2ccccc2)c(=O)n(-c2ccccc2)c(=S)n1-c1ccccc1)c1ccc(Cl)cc1

["42.6 µM", "> 100 µM"]
